// reported melting point for each item listed

# example entries with known answers
{"columns": ["COMPOUND", "melting point"],
 "data": [
  ["CC(C)n1cc(CCNC2CCc3[nH]c4ccc(O)cc4c3C2)cn1.Cl (stereo not drawn)", "251 to 253 °C"],
  ["CN1CCC(c2c[nH]c3ccc(N(S(=O)(=O)C(F)(F)F)S(=O)(=O)C(F)(F)F)cc23)CC1.Cl", "175 to 185 °C (dec.)"]
]}

Note: attention shifts to another entry.
Task: Value lookup for melting point; key = CCN1CC=C(c2c[nH]c3ccc(NS(C)(=O)=O)cc23)CC1
Output: 218 to 219 °C (dec.)

Values were extracted from patent US6380201B1.
